system_tested: PI3K p110 beta/p85 alpha (Homo sapiens, UniProt P42338)
Sequence (P27986 whole entry): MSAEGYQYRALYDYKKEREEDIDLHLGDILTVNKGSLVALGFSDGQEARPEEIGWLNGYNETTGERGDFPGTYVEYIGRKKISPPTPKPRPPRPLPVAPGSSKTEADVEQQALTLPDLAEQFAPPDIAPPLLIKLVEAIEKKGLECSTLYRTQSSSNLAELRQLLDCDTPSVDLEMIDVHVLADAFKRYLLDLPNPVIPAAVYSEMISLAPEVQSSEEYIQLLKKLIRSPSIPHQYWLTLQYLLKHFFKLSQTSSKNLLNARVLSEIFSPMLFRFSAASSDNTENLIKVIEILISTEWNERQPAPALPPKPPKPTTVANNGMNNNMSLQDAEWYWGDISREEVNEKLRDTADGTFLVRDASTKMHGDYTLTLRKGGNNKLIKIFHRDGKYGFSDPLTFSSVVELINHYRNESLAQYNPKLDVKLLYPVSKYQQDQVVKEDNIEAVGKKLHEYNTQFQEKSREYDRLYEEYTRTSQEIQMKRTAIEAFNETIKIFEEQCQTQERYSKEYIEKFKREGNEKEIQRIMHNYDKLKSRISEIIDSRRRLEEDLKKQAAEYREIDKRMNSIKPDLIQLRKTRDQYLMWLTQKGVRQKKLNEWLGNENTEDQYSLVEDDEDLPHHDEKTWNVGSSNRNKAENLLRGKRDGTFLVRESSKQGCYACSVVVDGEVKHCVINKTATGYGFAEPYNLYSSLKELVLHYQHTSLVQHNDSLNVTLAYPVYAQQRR
Sequence (P42338 whole entry): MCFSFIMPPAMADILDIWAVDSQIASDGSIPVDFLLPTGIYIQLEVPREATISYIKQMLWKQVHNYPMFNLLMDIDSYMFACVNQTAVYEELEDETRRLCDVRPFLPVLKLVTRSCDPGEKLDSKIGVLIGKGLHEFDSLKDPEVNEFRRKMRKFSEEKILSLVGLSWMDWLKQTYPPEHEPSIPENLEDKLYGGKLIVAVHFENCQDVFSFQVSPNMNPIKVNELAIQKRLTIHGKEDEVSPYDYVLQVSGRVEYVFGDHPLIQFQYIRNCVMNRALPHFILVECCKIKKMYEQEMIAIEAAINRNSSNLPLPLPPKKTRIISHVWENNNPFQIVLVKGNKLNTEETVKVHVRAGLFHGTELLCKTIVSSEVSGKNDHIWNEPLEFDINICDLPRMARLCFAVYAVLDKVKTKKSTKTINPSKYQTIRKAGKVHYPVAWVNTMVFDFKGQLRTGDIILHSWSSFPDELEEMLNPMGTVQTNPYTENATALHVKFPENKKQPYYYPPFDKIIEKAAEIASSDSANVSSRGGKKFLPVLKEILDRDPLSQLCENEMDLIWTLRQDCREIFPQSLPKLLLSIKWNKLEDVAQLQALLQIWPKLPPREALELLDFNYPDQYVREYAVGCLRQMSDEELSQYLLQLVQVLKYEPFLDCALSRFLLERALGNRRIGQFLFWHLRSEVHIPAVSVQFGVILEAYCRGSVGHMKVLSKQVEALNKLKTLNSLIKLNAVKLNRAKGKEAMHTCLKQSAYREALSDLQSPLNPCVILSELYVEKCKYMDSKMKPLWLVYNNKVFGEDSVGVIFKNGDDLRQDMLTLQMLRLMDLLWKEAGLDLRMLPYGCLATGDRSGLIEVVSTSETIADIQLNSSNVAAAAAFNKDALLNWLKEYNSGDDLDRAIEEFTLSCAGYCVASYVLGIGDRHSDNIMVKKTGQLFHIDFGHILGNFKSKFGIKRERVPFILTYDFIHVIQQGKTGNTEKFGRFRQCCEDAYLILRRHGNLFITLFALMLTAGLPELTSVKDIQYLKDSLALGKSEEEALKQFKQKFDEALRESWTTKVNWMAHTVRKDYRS
protocol_description: Inhibition of recombinant human PI3K p110beta/p85alpha using phosphatidylinositol 4,5-bisphosphate as substrate preincubated for 15 mins followed by addition of ATP and measured after 30 mins by fluorescence polarisation assay
recorded_endpoint: pKi
Lab note: report pKi as minus log10 of the concentration in molar units, number only.

[[record]]
test_smiles = "CC(C)C(=O)N1CC[C@](C)(N2CCc3c(-c4cnc(N)nc4)nc(N4CCOCC4)nc32)C1"
value_observed = 7.77

[[record]]
test_smiles = "COC(=O)N1CC[C@](CO)(Nc2cc(-c3cnc(N)nc3)nc(N3CCOCC3)n2)C1"
value_observed = 8.77

[[record]]
test_smiles = "C[C@]1(N2CCc3c(-c4cnc(N)nc4)nc(N4CCOCC4)nc32)CCN(S(C)(=O)=O)C1"
value_observed = 8.04

[[record]]
test_smiles = "Nc1ncc(-c2cc(N[C@@]3(CO)CCN(C(=O)OCC(F)F)C3)nc(N3CCOCC3)n2)cn1"
value_observed = 8.40

[[record]]
test_smiles = "Nc1ncc(-c2nc(N3CCOCC3)nc(N[C@@]3(CO)CCN(C(=O)OCC(F)F)C3)c2F)cn1"
value_observed = 8.70


Kindly consider the entry below.
get_value(item= CC(C)(N)C(=O)N1CC[C@](C)(N2CCc3c(-c4cnc(N)nc4)nc(N4CCOCC4)nc32)C1 , readout=pKi) returns 7.89
